Below, each entry is listed with its recorded IC50 fold difference vs WT.
- Subject Of Test: T1, human IL-17A (human, UniProt Q16552 24-155)
- T1 construct: secreted form made in Hek293 cells (GenBank U32659); also called hIL-17A; hIL17A
- Test Summary: AlphaScreen hIL-17A-IL-17RA; vs IL17MS13E02

Binder: IL17MS3021 (VHH, variant of IL17MS13E02; Kabat numbering) VHH: EVQLVESGGGLVQPGGSLRLSCAASGRTYDAMGWLRQAPGKEREFVAAISGSGDDTYYADSVKGRFTISKDNSKITMYLQMNSLRPEDTAVYYCATRRGLYYVWDSNDYENWGQGTLVTVSS
IC50 fold difference vs WT: 2.75 fold
//
Binder: IL17MS3035 (VHH, variant of IL17MS13E02; Kabat numbering) VHH: EVQLVESGGGLVQAGGSLRLSCAASGRTYDAMGWLRQAPGKEREFVAAISGSGDDTYYADSVKGRFTISKDNAGITLYLQMNSLKPEDTAVYYCATRRGLYYVWDSNDYENWGQGTQVTVSS
IC50 fold difference vs WT: 2 fold
//
Binder: IL17MS3027 (VHH, variant of IL17MS13E02; Kabat numbering) VHH: EVQLVESGGGLVQPGGSLRLSCAASGRTYDAMGWLRQAPGKEREFVAAISGSGDDTYYADSVKGRFTISRDNSGNTMYLQMNSLRPEDTAVYYCATRRGLYYVWDSNDYENWGQGTLVTVSS
IC50 fold difference vs WT: 1.23 fold
//
Binder: IL17MS3018 (VHH, basic variant of IL17MS13E02; Kabat numbering; also called IL17MS3018 basic) VHH: EVQLVESGGGLVQPGGSLRLSCAASGRTYDAMGWLRQAPGKEREFVAAISGSGDDTYYADSVKGRFTISKDNSGITMYLQMNSLRPEDTAVYYCATRRGLYYVWDSNDYENWGQGTLVTVSS
IC50 fold difference vs WT: 1.13 fold
